// data source = patent US11168073B2

The entries below come with measured IC50 values attached.
Molecular target: recombinant human VAP-1 (Homo sapiens)
Construct: purchased R&D systems
Sequence (Q16853 1-763): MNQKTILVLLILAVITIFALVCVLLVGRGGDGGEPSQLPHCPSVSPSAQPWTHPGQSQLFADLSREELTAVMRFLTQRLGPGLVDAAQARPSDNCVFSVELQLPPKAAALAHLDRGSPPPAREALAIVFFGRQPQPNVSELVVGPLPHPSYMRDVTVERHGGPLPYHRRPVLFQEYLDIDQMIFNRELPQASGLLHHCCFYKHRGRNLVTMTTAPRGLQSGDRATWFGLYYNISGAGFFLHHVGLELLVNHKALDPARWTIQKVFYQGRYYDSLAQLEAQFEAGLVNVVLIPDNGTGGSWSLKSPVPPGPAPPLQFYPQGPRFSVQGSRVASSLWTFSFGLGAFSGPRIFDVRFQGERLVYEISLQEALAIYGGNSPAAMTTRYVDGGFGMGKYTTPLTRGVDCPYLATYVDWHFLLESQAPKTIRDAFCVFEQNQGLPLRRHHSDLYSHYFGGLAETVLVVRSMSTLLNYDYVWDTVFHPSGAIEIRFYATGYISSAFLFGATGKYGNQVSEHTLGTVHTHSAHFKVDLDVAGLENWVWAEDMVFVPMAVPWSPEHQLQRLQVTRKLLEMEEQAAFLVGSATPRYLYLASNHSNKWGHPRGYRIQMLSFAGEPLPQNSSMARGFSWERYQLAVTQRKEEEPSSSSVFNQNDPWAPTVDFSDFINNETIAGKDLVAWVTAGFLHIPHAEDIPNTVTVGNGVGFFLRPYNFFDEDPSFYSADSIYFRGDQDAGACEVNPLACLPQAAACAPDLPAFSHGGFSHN
Assay: Activity evaluation on recombinant human VAP-1 (Amplex Red/HRP-coupled hydrogen peroxide assay, benzylamine substrate)
Assay type: biochemical
Details: recombinant human VAP-1; 30 min preincubation at 37° C.; 1 mM benzylamine; read-out: Inhibitory Activity (IC50, nM) human VAP-1
Where a name gives a salt, the structure may show the parent alone.
// units = nM; emit number, no label

Check out these entries, answers already filled in.
So, CCn1cc(-c2cccc(-n3cnn(CC(CN)=C(F)F)c3=O)n2)cn1 [Example 53, Trifluoroacetate] ? Its IC50 was 1.3

Item: NCC(Cn1ncn(-c2ccnc(-c3ccc(N4CCNCC4)cc3)c2)c1=O)=C(F)F [Example 62, Ditrifluoroacetate] | IC50: 1.5

Lookup result for NCC(Cn1ncn(-c2ccc(-c3ccc(C(F)(F)F)nc3)nc2)c1=O)=C(F)F [Example 40, Trifluoroacetate] ; measured IC50: 0.3

What the record says about CC(=O)N1CC=C(c2ccc(Cn3cnn(CC(CN)=C(F)F)c3=O)s2)CC1 [Example 125, Trifluoroacetate] : IC50 is 2.5

Per the records, this compound ( CN1C(=O)CCc2cc(-c3cc(-n4cnn(CC(CN)=C(F)F)c4=O)ccn3)ccc21 [Example 66, Trifluoroacetate] ) has IC50 equal to 0.6

Further cases:
// field: IC50; key: CCn1cc(-c2cnc(-n3cnn(CC(CN)=C(F)F)c3=O)c(F)c2)cn1 [Example 88, Trifluoroacetate] ; value = 0.3

get_value(item= CCn1cc(-c2ccc(Cn3cnn(CC(CN)=C(F)F)c3=O)s2)ccc1=O [Example 122, Trifluoroacetate] , readout=IC50) returns 0.4

For record CS(=O)(=O)c1ccc(-c2csc(Cn3cnn(CC(CN)=C(F)F)c3=O)c2)cc1 [Example 146, Trifluoroacetate] the listed IC50 is 1.1

Note to self: IC50 recorded for CC(C)n1cc(-c2ccc(Cn3cnn(CC(CN)=C(F)F)c3=O)s2)ccc1=O [Example 123, Trifluoroacetate] was 0.9

// CCn1cc(-c2ccc(-n3cnn(CC(CN)=C(F)F)c3=O)cn2)cn1 [Example 45, Trifluoroacetate] : IC50 value = 0.2

// sample Cc1cc(Br)ccc1-n1cnn(CC(CN)=C(F)F)c1=O [Example 6, trifluoroacetate] , its IC50 was 9.4

Recorded result, NCC(Cn1ncn(-c2ccc(F)c(F)c2)c1=O)=C(F)F [Example 3, Trifluoroacetate] , IC50: 4

Value of measured IC50 for the entry CCn1cc(-c2cnc(-n3cnn(CC(CN)=C(F)F)c3=O)cn2)cn1 [Example 95, Trifluoroacetate] : 0.6

response.value for CN1CC=C(c2ccc(Cn3cnn(CC(CN)=C(F)F)c3=O)s2)CC1 [Example 124, Trifluoroacetate] (field: IC50) = 11

get_value(item= Cc1cc(-n2cnn(CC(CN)=C(F)F)c2=O)cnc1Br [Example 13, Trifluoroacetate] , readout=IC50) returns 3.6

Just so you know, measured IC50 for CS(=O)(=O)c1ccc(-c2ccc(Cn3cnn(CC(CN)=C(F)F)c3=O)s2)cc1 [Example 101, Trifluoroacetate] came out at 0.3

Documented IC50 of NCC(Cn1ncn(Cc2ccc(-c3cccc(N4CCNCC4)c3)s2)c1=O)=C(F)F [Example 107, Ditrifluoroacetate] : 3.5

Per the record, NCC(Cn1ncn(Cc2ccc(-c3cnc4c(c3)CCCN4)s2)c1=O)=C(F)F [Example 145, Ditrifluoroacetate] has IC50 of 0.8

Entry NCC(Cn1ncn(-c2cnc(-c3ccc(C(F)(F)F)nc3)cn2)c1=O)=C(F)F [Example 91, Trifluoroacetate] — recorded IC50 = 0.5

The recorded IC50 for entry COc1ccc(-c2ccc(Cn3cnn(CC(CN)=C(F)F)c3=O)s2)cn1 [Example 113, Trifluoroacetate] equals 0.6

// NCC(Cn1ncn(Cc2ccc(C#Cc3cnc4c(c3)NCCO4)s2)c1=O)=C(F)F [Example 166, Ditrifluoroacetate] : IC50 value = 0.9

Form: compound = CN1CCOc2cc(-c3ccc(Cn4cnn(CC(CN)=C(F)F)c4=O)s3)ccc21 [Example 140, Trifluoroacetate] ; IC50 = 0.8

Record CCn1cc(-c2ccc(Cn3cnn(CC(CN)=C(F)F)c3=O)s2)cn1 [Example 119, Trifluoroacetate] , field IC50: 0.5

IC50 reported for this compound NCC(Cn1ncn(Cc2ccc(C#Cc3ccc(N4CCOCC4)nc3)s2)c1=O)=C(F)F [Example 163, Trifluoroacetate] : 0.4
